System: 2Sb-muMax20 (muMax20 with two 1,3-bis(methyl)benzene Cys staples, A13C/A17C and Q88C/A92C, C-terminal Lys)
measurement.protocol: PBM 8-mer E-score (E-score (rank enrichment, -0.5 to 0.5)); higher = stronger preferential binding
Over roughly 33,000 sequences, “E-score (rank enrichment, -0.5 to 0.5)” has its median near -0.0028; the highest 2% begin near 0.23. This is one part of a sample in which the highest values are shown more often than they occur.
recorded.metric: PBM 8-mer E-score

residues=CACGCGTA measurement=0.199
residues=AACACAAG measurement=0.141
residues=AAACCCTG measurement=0.029
residues=AACACGTC measurement=0.0373
residues=AAACCCCA measurement=0.232
residues=ATTTAAAC measurement=0.167
residues=GTACCCCA measurement=0.195
residues=AGTGACTG measurement=-0.0977
residues=CTACCCCA measurement=0.259

---

Tested on: 2Sb-muMax20 (muMax20 with two 1,3-bis(methyl)benzene Cys staples, A13C/A17C and Q88C/A92C, C-terminal Lys)
measurement.protocol: PBM 8-mer E-score (E-score (rank enrichment, -0.5 to 0.5)); higher = stronger preferential binding
In all, about 33,000 sequences were measured (“E-score (rank enrichment, -0.5 to 0.5)”: median about -0.0028, highest 2% from about 0.23 on). The full list was thinned out, with the highest values kept by preference.
Reported PBM 8-mer E-score maps to class as: bin A: < 0.04; bin B: ≥ 0.04 and < 0.2; bin C: ≥ 0.2

residues=GCATAACA category_label="bin C"
residues=GTATAAAC category_label="bin B"
residues=AATTGTAC category_label="bin C"
residues=AGCTATTA category_label="bin C"
residues=ATATAAAA category_label="bin B"
residues=GAATAAAA category_label="bin A"
residues=ACAATAAA category_label="bin B"
residues=CTATGGTC category_label="bin A"
residues=ACATAACA category_label="bin B"
residues=GGGCCGGA category_label="bin A"
residues=ACATGTCG category_label="bin B"
residues=ACGGCAGC category_label="bin A"
residues=ATCATAAA category_label="bin A"
residues=ATCATGAT category_label="bin C"
residues=TCATCAAA category_label="bin A"
residues=CCTTATAC category_label="bin B"
residues=CAATAAAA category_label="bin C"
residues=TTCAGGAA category_label="bin A"
residues=AACATAAG category_label="bin B"
residues=ACAATAAC category_label="bin B"
residues=ACGAAGGC category_label="bin A"
residues=ATAATCAT category_label="bin C"
residues=TCGGACGA category_label="bin A"
residues=ATCATGAA category_label="bin B"
residues=AACTAATA category_label="bin C"
residues=ATCATGAG category_label="bin B"

---

Test system: 2Sb-muMax20 (muMax20 with two 1,3-bis(methyl)benzene Cys staples, A13C/A17C and Q88C/A92C, C-terminal Lys)
measurement.protocol: PBM 8-mer E-score (E-score (rank enrichment, -0.5 to 0.5)); higher = stronger preferential binding
In all, about 33,000 sequences were measured (“E-score (rank enrichment, -0.5 to 0.5)”: median about -0.0028, highest 2% from about 0.23 on). Only a selection was taken, and the highest values are over-represented in it overall.
Entries and their PBM 8-mer E-score values follow.
recorded.metric: PBM 8-mer E-score

residues=AACATACT measurement=0.1
residues=AAAGGTTA measurement=0.0976
residues=GATATGAA measurement=0.103

---

Tested on: 2Sb-muMax20 (muMax20 with two 1,3-bis(methyl)benzene Cys staples, A13C/A17C and Q88C/A92C, C-terminal Lys)
measurement.protocol: PBM 8-mer E-score (E-score (rank enrichment, -0.5 to 0.5)); higher = stronger preferential binding
Over roughly 33,000 sequences, “E-score (rank enrichment, -0.5 to 0.5)” has its median near -0.0028; the highest 2% begin near 0.23. This is one part of a sample in which the highest values are shown more often than they occur.
Use met when the recorded PBM 8-mer E-score is no lower than 0.1; use not met when it is lower.

residues=CGGTGGGA category_label="not met"
residues=AAATTATC category_label=met
residues=TAAAACAA category_label="not met"
residues=GAATTATA category_label=met
residues=ATTTACGA category_label=met
residues=CACGAGAA category_label="not met"
residues=GAAAACAA category_label=met
residues=ACGTAGAA category_label="not met"
residues=AAAAACAA category_label=met

---

Entries and their PBM 8-mer E-score values follow.
Test system: 2Sb-muMax20 (muMax20 with two 1,3-bis(methyl)benzene Cys staples, A13C/A17C and Q88C/A92C, C-terminal Lys)
measurement.protocol: PBM 8-mer E-score (E-score (rank enrichment, -0.5 to 0.5)); higher = stronger preferential binding
The full ranking holds about 33,000 sequences; the median of “E-score (rank enrichment, -0.5 to 0.5)” is about -0.0028, and the highest 2% start at about 0.23. This excerpt belongs to a sample that is enriched for the highest values.
recorded.metric: PBM 8-mer E-score

residues=AGCCAACC recorded_metric="PBM 8-mer E-score" measurement=0.106
residues=AAACGACC recorded_metric="PBM 8-mer E-score" measurement=0.115
residues=CCCACTTA recorded_metric="PBM 8-mer E-score" measurement=0.268
residues=AGTGTGGC recorded_metric="PBM 8-mer E-score" measurement=-0.0951
residues=AATACAAA recorded_metric="PBM 8-mer E-score" measurement=0.293
residues=ACGTTATC recorded_metric="PBM 8-mer E-score" measurement=0.0764
residues=AGTTGGGA recorded_metric="PBM 8-mer E-score" measurement=-0.0331
residues=CACATATA recorded_metric="PBM 8-mer E-score" measurement=0.21
residues=GCCACTTA recorded_metric="PBM 8-mer E-score" measurement=-0.042
residues=CCATTCCG recorded_metric="PBM 8-mer E-score" measurement=-0.0949
residues=CTGGACAC recorded_metric="PBM 8-mer E-score" measurement=-0.259
residues=GCAATTGC recorded_metric="PBM 8-mer E-score" measurement=0.031
residues=CCCAGCGA recorded_metric="PBM 8-mer E-score" measurement=-0.132
residues=AATACAAG recorded_metric="PBM 8-mer E-score" measurement=0.243
residues=AATACAAT recorded_metric="PBM 8-mer E-score" measurement=0.105
residues=AATTTTCC recorded_metric="PBM 8-mer E-score" measurement=0.085
residues=ATATGAAG recorded_metric="PBM 8-mer E-score" measurement=-0.0272
residues=CATACAAG recorded_metric="PBM 8-mer E-score" measurement=0.0617
residues=AAACGACT recorded_metric="PBM 8-mer E-score" measurement=0.24
residues=ACTTGCGG recorded_metric="PBM 8-mer E-score" measurement=-0.169
residues=AACATATG recorded_metric="PBM 8-mer E-score" measurement=0.182
residues=AGTTGGGG recorded_metric="PBM 8-mer E-score" measurement=0.235
residues=CCCACTCC recorded_metric="PBM 8-mer E-score" measurement=0.241
residues=AACATATC recorded_metric="PBM 8-mer E-score" measurement=0.124
residues=ATATGAAA recorded_metric="PBM 8-mer E-score" measurement=0.268
residues=CCCACTTC recorded_metric="PBM 8-mer E-score" measurement=0.184

---

Entries and their PBM 8-mer E-score values follow.
System: 2Sb-muMax20 (muMax20 with two 1,3-bis(methyl)benzene Cys staples, A13C/A17C and Q88C/A92C, C-terminal Lys)
measurement.protocol: PBM 8-mer E-score (E-score (rank enrichment, -0.5 to 0.5)); higher = stronger preferential binding
Over roughly 33,000 sequences, “E-score (rank enrichment, -0.5 to 0.5)” has its median near -0.0028; the highest 2% begin near 0.23. The entries come from a sample that favours the highest values as a whole.
recorded.metric: PBM 8-mer E-score

residues=GTATATTA recorded_metric="PBM 8-mer E-score" measurement=0.188
residues=ATATATTA recorded_metric="PBM 8-mer E-score" measurement=0.241
residues=ACACGTGA recorded_metric="PBM 8-mer E-score" measurement=0.387
residues=ATTAGGTC recorded_metric="PBM 8-mer E-score" measurement=0.0763
residues=GCAGCTAC recorded_metric="PBM 8-mer E-score" measurement=-0.158
residues=GTATTACA recorded_metric="PBM 8-mer E-score" measurement=0.253
residues=GGGAATGA recorded_metric="PBM 8-mer E-score" measurement=0.322
residues=AATAAACA recorded_metric="PBM 8-mer E-score" measurement=0.195
residues=AGAGTACT recorded_metric="PBM 8-mer E-score" measurement=0.0199
residues=AGGAATGA recorded_metric="PBM 8-mer E-score" measurement=0.00801
residues=TAAAGCAA recorded_metric="PBM 8-mer E-score" measurement=0.288
residues=ATAATGTC recorded_metric="PBM 8-mer E-score" measurement=0.238
residues=CCAATTAC recorded_metric="PBM 8-mer E-score" measurement=0.238
residues=CTCGCGAC recorded_metric="PBM 8-mer E-score" measurement=0.107
residues=GCAGCCAA recorded_metric="PBM 8-mer E-score" measurement=-0.0475
residues=AGCAGATC recorded_metric="PBM 8-mer E-score" measurement=-0.143
residues=AATTAGTC recorded_metric="PBM 8-mer E-score" measurement=0.0882
residues=AACATGTT recorded_metric="PBM 8-mer E-score" measurement=0.122
residues=CCAACGAC recorded_metric="PBM 8-mer E-score" measurement=-0.133
residues=CTCCACTA recorded_metric="PBM 8-mer E-score" measurement=0.0307
residues=GTCCGACA recorded_metric="PBM 8-mer E-score" measurement=-0.0883
residues=CCTCCACC recorded_metric="PBM 8-mer E-score" measurement=0.0772
residues=GTCGCGAC recorded_metric="PBM 8-mer E-score" measurement=0.291
residues=TCAATTGA recorded_metric="PBM 8-mer E-score" measurement=0.1
residues=CGTGGAAG recorded_metric="PBM 8-mer E-score" measurement=0.0947
residues=ACGTAGGC recorded_metric="PBM 8-mer E-score" measurement=-0.161
residues=ATTACCCA recorded_metric="PBM 8-mer E-score" measurement=0.241
residues=AGTACGTC recorded_metric="PBM 8-mer E-score" measurement=0.257
residues=AAACGTGT recorded_metric="PBM 8-mer E-score" measurement=0.0274
residues=ATCGCGAG recorded_metric="PBM 8-mer E-score" measurement=0.151
residues=ACATAGTA recorded_metric="PBM 8-mer E-score" measurement=0.141
residues=GTAGACAC recorded_metric="PBM 8-mer E-score" measurement=0.0487
residues=GTAATTTA recorded_metric="PBM 8-mer E-score" measurement=0.0825
residues=ATTACAGA recorded_metric="PBM 8-mer E-score" measurement=-0.121
residues=GTATTATA recorded_metric="PBM 8-mer E-score" measurement=0.238
residues=GAAAGCAA recorded_metric="PBM 8-mer E-score" measurement=0.0699
residues=CACTAGGC recorded_metric="PBM 8-mer E-score" measurement=-0.0625
residues=CTTACACC recorded_metric="PBM 8-mer E-score" measurement=-0.035
residues=AACCGGCC recorded_metric="PBM 8-mer E-score" measurement=-0.167
residues=ATAATTGA recorded_metric="PBM 8-mer E-score" measurement=0.258
residues=GCATTATA recorded_metric="PBM 8-mer E-score" measurement=0.14
residues=CGAAGCAA recorded_metric="PBM 8-mer E-score" measurement=-0.0083
residues=AACATGTC recorded_metric="PBM 8-mer E-score" measurement=0.11

meta.source: the supplement of paper PMC12636033
